Target: Nitric oxide synthase, inducible (Homo sapiens, UniProt P35228)
Sequence (P35228 whole entry): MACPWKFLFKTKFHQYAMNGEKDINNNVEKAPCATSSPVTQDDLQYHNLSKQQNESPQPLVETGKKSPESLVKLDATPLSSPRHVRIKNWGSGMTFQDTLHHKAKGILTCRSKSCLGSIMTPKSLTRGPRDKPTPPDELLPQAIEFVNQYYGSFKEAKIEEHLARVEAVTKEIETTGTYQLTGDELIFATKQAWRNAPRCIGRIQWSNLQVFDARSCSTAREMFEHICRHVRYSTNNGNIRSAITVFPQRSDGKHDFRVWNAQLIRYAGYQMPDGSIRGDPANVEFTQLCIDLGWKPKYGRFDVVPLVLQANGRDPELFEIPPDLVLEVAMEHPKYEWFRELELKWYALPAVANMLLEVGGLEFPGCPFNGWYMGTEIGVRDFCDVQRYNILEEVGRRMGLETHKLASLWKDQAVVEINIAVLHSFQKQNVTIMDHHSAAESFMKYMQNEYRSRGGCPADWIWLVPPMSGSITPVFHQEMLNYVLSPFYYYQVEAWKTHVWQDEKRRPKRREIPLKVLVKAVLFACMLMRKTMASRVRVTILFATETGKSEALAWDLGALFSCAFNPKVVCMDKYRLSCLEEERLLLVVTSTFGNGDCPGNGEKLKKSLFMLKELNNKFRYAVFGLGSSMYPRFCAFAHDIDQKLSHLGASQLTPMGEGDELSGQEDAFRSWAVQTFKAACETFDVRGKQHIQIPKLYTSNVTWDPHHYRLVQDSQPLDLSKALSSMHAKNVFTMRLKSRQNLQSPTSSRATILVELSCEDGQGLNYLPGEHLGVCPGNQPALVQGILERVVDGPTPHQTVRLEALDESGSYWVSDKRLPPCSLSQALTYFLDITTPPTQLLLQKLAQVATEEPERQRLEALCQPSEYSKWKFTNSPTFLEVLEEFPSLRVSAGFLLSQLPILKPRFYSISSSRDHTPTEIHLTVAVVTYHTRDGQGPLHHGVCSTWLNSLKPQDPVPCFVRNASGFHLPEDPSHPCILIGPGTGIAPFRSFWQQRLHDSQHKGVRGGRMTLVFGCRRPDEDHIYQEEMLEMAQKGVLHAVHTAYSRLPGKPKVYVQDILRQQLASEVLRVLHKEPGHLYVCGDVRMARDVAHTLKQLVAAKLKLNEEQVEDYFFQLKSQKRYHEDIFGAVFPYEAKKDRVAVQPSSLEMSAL
Measured Endpoint: IC50 (µM)
The reply should be a number in µM, with the unit left off.

Query block: IC50 for CC(=N)NCCC[C@H](N)C(=O)O ?
Result block: 4

* * *

Target: Nitric oxide synthase 1 (Homo sapiens, UniProt P29475)
Sequence (P29475 whole entry): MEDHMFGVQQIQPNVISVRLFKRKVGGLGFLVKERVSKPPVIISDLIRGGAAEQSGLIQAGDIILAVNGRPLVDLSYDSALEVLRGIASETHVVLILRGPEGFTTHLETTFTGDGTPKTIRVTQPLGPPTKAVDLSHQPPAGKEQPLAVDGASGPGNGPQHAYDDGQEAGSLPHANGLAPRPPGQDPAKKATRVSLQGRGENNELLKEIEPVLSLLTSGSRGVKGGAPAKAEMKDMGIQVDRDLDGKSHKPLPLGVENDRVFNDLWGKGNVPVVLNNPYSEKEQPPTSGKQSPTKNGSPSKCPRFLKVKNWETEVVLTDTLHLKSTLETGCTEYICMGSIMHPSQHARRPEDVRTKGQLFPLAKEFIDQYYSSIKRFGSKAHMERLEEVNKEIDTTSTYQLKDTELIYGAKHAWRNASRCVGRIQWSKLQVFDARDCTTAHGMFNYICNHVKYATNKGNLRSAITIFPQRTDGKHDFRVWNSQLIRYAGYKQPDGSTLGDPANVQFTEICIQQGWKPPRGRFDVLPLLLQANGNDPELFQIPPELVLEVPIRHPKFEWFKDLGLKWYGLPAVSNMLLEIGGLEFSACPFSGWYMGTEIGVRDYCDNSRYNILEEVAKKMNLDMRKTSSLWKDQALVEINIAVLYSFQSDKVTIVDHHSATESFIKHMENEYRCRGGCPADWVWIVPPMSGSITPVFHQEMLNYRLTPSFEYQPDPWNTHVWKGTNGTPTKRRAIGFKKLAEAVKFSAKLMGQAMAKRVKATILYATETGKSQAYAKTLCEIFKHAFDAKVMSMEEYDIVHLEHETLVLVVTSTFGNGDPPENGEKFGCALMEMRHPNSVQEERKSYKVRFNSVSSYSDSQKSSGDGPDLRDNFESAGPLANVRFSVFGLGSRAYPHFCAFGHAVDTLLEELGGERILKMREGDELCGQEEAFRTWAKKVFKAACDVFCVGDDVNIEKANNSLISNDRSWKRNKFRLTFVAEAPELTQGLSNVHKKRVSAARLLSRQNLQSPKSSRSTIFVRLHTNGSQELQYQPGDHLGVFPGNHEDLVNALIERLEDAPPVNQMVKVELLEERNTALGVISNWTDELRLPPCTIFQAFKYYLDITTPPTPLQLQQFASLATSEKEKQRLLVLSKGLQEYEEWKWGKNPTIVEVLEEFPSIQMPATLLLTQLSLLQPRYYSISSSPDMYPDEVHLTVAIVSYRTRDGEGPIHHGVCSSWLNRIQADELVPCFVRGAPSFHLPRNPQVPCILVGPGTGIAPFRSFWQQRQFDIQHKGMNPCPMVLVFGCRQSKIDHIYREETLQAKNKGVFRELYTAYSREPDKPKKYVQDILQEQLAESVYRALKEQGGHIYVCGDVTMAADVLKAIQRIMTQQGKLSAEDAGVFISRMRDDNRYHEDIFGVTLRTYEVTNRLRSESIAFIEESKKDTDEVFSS
Measured Endpoint: pIC50
Note on pIC50: it is the negative log10 of concentration, concentration in mol/L.

Query block: pIC50 for CCC[C@@H](CCN=C(N)SC)[C@H](N)C(=O)O ?
Result block: 3.30

Recorded values, source ChEMBL document CHEMBL1139597.
